- test-summary: self-splicing fitness, log relative to wild type (ln ratio); higher = more splicing; Tetrahymena group I intron in knt gene, E. coli kanamycin selection, DiMSum; sequences stand for … in CUCUCU…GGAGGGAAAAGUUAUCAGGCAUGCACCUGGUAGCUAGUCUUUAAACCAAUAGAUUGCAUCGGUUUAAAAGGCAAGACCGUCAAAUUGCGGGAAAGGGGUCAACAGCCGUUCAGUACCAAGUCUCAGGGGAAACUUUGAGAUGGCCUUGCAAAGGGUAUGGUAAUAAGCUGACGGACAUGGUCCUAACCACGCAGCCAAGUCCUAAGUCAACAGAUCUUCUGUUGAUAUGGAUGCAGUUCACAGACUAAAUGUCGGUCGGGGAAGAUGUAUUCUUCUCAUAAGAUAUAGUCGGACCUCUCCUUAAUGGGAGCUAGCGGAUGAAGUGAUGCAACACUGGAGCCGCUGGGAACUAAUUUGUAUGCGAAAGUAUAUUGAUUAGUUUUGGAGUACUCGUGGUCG;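 further: selection with 25 µg/mL kanamycin versus none on LB agar overnight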
- reported-conditions: 37 °C
quantity-name: self-splicing fitness (ln)

> print(dat)
           item.sequence               quantity.name  measured.result
 1  GGGUAGCAAUAUUACGUCGC  self-splicing fitness (ln)            0.272
 2  UACUAGCAAUAUUACGACAU  self-splicing fitness (ln)           -0.715
 3  AGCGAGCAAUAUUACGCUUA  self-splicing fitness (ln)            0.422
 4  AUUUAGCAAUAUUACGGCCU  self-splicing fitness (ln)           -0.166
 5  AUGAAGCAAUAUUACGGGCA  self-splicing fitness (ln)            0.459
 6  UACCAGCAAUAUUACGGCAC  self-splicing fitness (ln)            -1.05
 7  GCCCAGCAAUAUUACGGGAA  self-splicing fitness (ln)            0.313
 8  ACGUAGCAAUAUUACGGAUG  self-splicing fitness (ln)            -2.42
 9  UUCAAGCAAUAUUACGGUGA  self-splicing fitness (ln)            0.168
10  GAAGAGCAAUAUUACGGUGC  self-splicing fitness (ln)            -2.41
11  CGCAAGCAAUAUUACGCAUU  self-splicing fitness (ln)            -3.12
12  CCUGAGCAAUAUUACGGAGG  self-splicing fitness (ln)            -2.54
13  CUGUAGCAAUAUUACGAUGU  self-splicing fitness (ln)            -5.09
14  AUGUAGCAAUAUUACGAACC  self-splicing fitness (ln)           -0.513
15  ACGGAGCAAUAUUACGCAUA  self-splicing fitness (ln)            -2.86
16  AUGCAGCAAUAUUACGAUUC  self-splicing fitness (ln)           -0.939
